Values were extracted from patent US10618964B2.

TARGET OF ASSAY: native soluble IL-6R in human plasma (human, UniProt P08887)
PROCEDURE TEXT: ELISA 3, periplasmic extract; competitor BN-12; human plasma
The binders listed here are annotated with their OD450 ratio sample/blank.
Answer with the value's number alone.

Study these solved cases before continuing.
IL6RPMP101D2 (VHH) VHH: EVQMVESGGGLVQAGGSLRLSCAASGFAFDDYAIGWFRQAPGKEREGVSSISSSNGNTYYADSVRGRFTISSDNAKNTVYLQMNSLKPEDAGVYYCAAIWGIFFNEKMPVGAYDYWGQGTQVTVSS    0.977
IL6RPMP105E1 (VHH) VHH: EVQLVESGGGLVQAGGSLRLSCAASGSIFSIKAMGWYRQAPGKQRELVARITSGGSTYYADSVKGRFTISRDNAKNTVYLQMNSLKPEDTAVFYCNAIVTDSDYDLGNDYWGQGTQVTVSS    0.995

Sample IL6RPMP101B3 (VHH) VHH: EVQLVESGGGLVQAGGSLRLSCAASGSIFRINAMGWYRQAPGKQRELVAAAISGGSTNYADFVKGRFTISRDNAKNTVYLQMNSLKPEDTAVYYCNALVVSHNYSDYVPFPDDYWGQGTQVTVSS ; OD450 ratio sample/blank observed: 0.972
